The origin of these recorded values is PubChem BioAssay.

assay: ICB984 medulloblastoma cell growth inhibition, synergistic combos for chromothripsis tumors, cisplatin or BGB combos (AID 1671451); details: ICB984 medulloblastoma cells, drug combinations, cisplatin combo, at 0.5 µM, stronger effect = higher value;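 note: cells exposed for 96 hours before readout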
inhibition vs -20%: at or above is Condition met, below is Condition not met.

Answered cases to consult:
{"MOLECULE": "COC1C(OC(N)=O)C(O)C(Oc2ccc3c(O)c(NC(=O)c4ccc(O)c(CC=C(C)C)c4)c(=O)oc3c2C)OC1(C)C (configuration not stated)", "ANSWER LABEL": "Condition met"}
{"MOLECULE": "O=c1cc[nH]c(=O)[nH]1", "ANSWER LABEL": "Condition not met"}
{"MOLECULE": "CN1CCN(c2c(F)cc3c(=O)c(C(=O)O)cn(CCF)c3c2F)CC1", "ANSWER LABEL": "Condition met"}
{"MOLECULE": "Nc1ncn([C@H]2C[C@H](O)[C@@H](CO)O2)c(=O)n1", "ANSWER LABEL": "Condition met"}

Can `CN1CCN(c2c(F)cc3c(=O)c(C(=O)O)cn4c3c2OCN4C)CC1` be said to have inhibition at or above -20%?
Condition not met

Ok, now `Nc1ccc2cc3ccc(N)cc3nc2c1`
Condition not met

Ok, now CNC1CCCN(c2c(F)cc3c(=O)c(C(=O)O)cn(C4CC4)c3c2OC)C1 (configuration not stated)
Condition not met
